- Test details: NOVARTIS: Cytotoxicity against human hepatocellular carcinoma cell line (Huh7)
- Assay type: toxicity, cell-based, Huh-7
- Conditions used: Huh7 cells (hepatocellular carcinoma cell line)

# Molecule, CC50
rows = [
    ("O=c1[nH]c(N2CCCC2)nc2c1CCN(Cc1coc3ccccc3c1=O)C2", "> 10 µM"),
    ("CCC1=[N+](C)c2cccc3cccc(c23)N1C", "> 100 µM"),
    ("O=C(CSc1nc2ccccc2c(=O)n1-c1ccc(C(=O)N2CCOCC2)cc1)c1ccccc1", "> 10 µM"),
    ("Oc1ccc2ccccc2c1CNc1nc2ccccc2[nH]1", "14.3 µM"),
    ("COc1ccccc1-n1c(/C=C/c2cc(Br)ccc2O)nc2ccccc2c1=O", "> 10 µM"),
    ("CCN(C(=O)CSc1nc(-c2ccc(C(C)C)cc2)no1)c1cccc(C)c1", "> 100 µM"),
    ("CCOP(=O)(OCC)C(O)c1ccc(C)cc1 (stereo not drawn)", "> 10 µM"),
    ("O=C(C=Cc1ccccc1Cl)Nc1ccc(Oc2ccc3ccccc3c2Cl)c(Cl)c1", "> 100 µM"),
    ("COc1cccc(CNC(=O)C2CNCC2c2ccc(C(F)(F)F)cc2)c1 (stereo not drawn)", "> 7.22 µM"),
    ("N=C(N)NN=Cc1cc(Cl)ccc1O", "> 1.86 µM"),
    ("CCOC(=O)c1cnc2c(ccc3ccccc32)c1Nc1ccc(NC(C)=O)cc1", "> 100 µM"),
    ("Cc1cn2c3ccccc3n(CCN3CCCC3)c2n1", "60.5 µM"),
    ("COc1cccc(C(NC(=O)c2ccccc2)c2ccc3cccnc3c2O)c1 (stereo not drawn)", "> 100 µM"),
]

====

- Tested on: Plasmodium falciparum
- Test details: NOVARTIS: Inhibition of Plasmodium falciparum 3D7 (drug-susceptible) proliferation in erythrocyte-based infection assay
- Format: functional, organism-based
- Conditions used: Plasmodium falciparum, 3D7

# Compound, EC50 (nM)
rows = [
    ("CCOc1ccc(C(=O)C(C)[n+]2cc(-c3ccc(OC)cc3)n3c2CCC3)cc1 (stereo not given)", 506),
    ("Cc1cc(Nc2cccc(Cl)c2)nc(NCc2ccccc2)n1", 51),
    ("O=C(Nc1ccc(CC2=NCCCN2)cc1)c1ccc(C(=O)Nc2ccc(CC3=NCCCN3)cc2)cc1", 127),
    ("CCN(CC)c1ccc(C=NNC(=O)c2ccc(Nc3nc(-c4ccccc4)cs3)cc2)c(O)c1", 151),
    ("N#C/C(=C\\c1cn(Cc2ccc(Cl)cc2Cl)c2ccccc12)c1nc2ccccc2[nH]1", 315),
]

====

Listed compounds paired with reported CC50
- Test details: NOVARTIS: Cytotoxicity against human hepatocellular carcinoma cell line (Huh7)
- Format: toxicity, cell-based, Huh-7
- Conditions used: Huh7 cells (hepatocellular carcinoma cell line)

# Compound, CC50
data = [
    ("CCCN(CCC)S(=O)(=O)c1cc(Br)cc2c1N(C(=O)CC)CC2", "> 100 µM"),
    ("CCN1CCN(CC=Cc2ccccc2[N+](=O)[O-])CC1", "> 100 µM"),
    ("CCc1cc(=O)n(C)c(SC(CC)C(=O)Nc2ccc(F)cc2)n1 (configuration not stated)", "> 100 µM"),
    ("Cc1ccc(NC(=O)C2CSC(c3cccc(F)c3)N2C(=O)c2ccc(C(C)(C)C)cc2)cc1C (configuration not stated)", "0.848 µM"),
    ("CSc1c(C(=O)Nc2ccc(Br)cc2)ccc2c1C(=O)c1ccccc1C2=O", "> 10 µM"),
    ("CCc1c(C#N)c(N)nc(SCC(=O)c2ccc(C)cc2C)c1C#N", "> 100 µM"),
    ("CCOC(=O)c1c(NC(=O)C(C)Sc2nnc(CNC(=O)c3ccco3)n2-c2cccc(C(F)(F)F)c2)sc2c1CCC2 (configuration not stated)", "> 100 µM"),
    ("CC(C)(C)C(/C=C/c1ccc(Cl)cc1Cl)n1nnnc1C1(Nc2ccc(Cl)cc2)CCCCC1 (configuration not stated)", "> 10 µM"),
    ("Cc1cc(C)n2nc(-c3ccc(Cl)cc3)cc2n1", "> 10 µM"),
    ("CN1CCC(CCNCc2ccc(OCC(O)CN(C)Cc3ccccc3)cc2)CC1 (configuration not stated)", "68.6 µM"),
    ("O=C(COC(c1cccs1)c1cccnc1Cl)N1CCN(CCO)CC1 (configuration not stated)", "> 100 µM"),
    ("COc1ccccc1NC(=O)C(=O)NCCc1ccc(OC)c(OC)c1", "> 100 µM"),
]

The reported measurements were obtained from ChEMBL document CHEMBL1156829.
